- Assay Protocol: P. falciparum Dd2 growth inhibitors, primary screen, SYBR Green fluorescence, single dose replicates (AID 1159554)
- Experimental Setup: 72 h, at 10 µM
The campaign covered roughly 94,000 compounds. About 2,100 (2.2%) were called active. Rule as the data show it: active = activity change below about -80%; inconclusive = no clear call, values can overlap the other calls; inactive = above that. What follows is part of a selection rich in actives, with near analogues and random picks from the rest.
Mark one answer only. Choices: active, inactive

Compound Structure: COc1ccc(-c2ccc3c(c2)O[C@H](CN(C)Cc2ccccc2C(=O)O)[C@H](C)CN([C@@H](C)CO)S3(=O)=O)cc1
Category: inactive

Given COc1ccc(-c2ccccc2[C@H]2[C@@H](CO)N(C(=O)C3CCC3)[C@H]2C#N)cc1 , state the outcome it received in this test.
inactive

Given C[C@@H]1CN([C@H](C)CO)S(=O)(=O)c2ccc(-c3ccccc3)cc2O[C@@H]1CN(C)CC1CC1 , state the outcome it received in this test.
inactive

Given C[C@H]1CN([C@@H](C)CO)S(=O)(=O)c2ccc(-c3cccc(C#N)c3)cc2O[C@H]1CN(C)CC1CC1 , state the outcome it received in this test.
active

Given CCC(=O)N(C)C[C@H]1Oc2cc(-c3cccc(C#N)c3)ccc2S(=O)(=O)N([C@@H](C)CO)C[C@@H]1C , state the outcome it received in this test.
inactive

Given O=C(Nc1cccc(Cl)c1)N[C@@H]1CC[C@@H](CCNC(=O)C2CCOCC2)O[C@@H]1CO , state the outcome it received in this test.
inactive

Given COc1ccc2c3c([nH]c2c1)[C@H](CO)N(C(=O)c1ccccc1)CC31CCN(S(=O)(=O)c2cccs2)CC1 , state the outcome it received in this test.
inactive

Given C[C@@H]1CN([C@H](C)CO)S(=O)(=O)c2ccc(/C=C/c3ccccc3)cc2O[C@@H]1CN(C)Cc1ccccc1 , state the outcome it received in this test.
inactive

---

- Assay Protocol: P. falciparum Dd2 growth inhibitors, primary screen, SYBR Green fluorescence, single dose replicates (AID 1159554)
- Experimental Setup: 72 h, at 10 µM
About 2,100 (2.2%) of roughly 94,000 compounds were called active. No stated cut-off is given here; in the data, active means activity change below about -80%; inconclusive means no clear call, values can overlap the other calls; inactive means above that. This excerpt belongs to a sample that is enriched for actives.
Mark one answer only. Choices: yes (active), no (inactive)

The examples below pair each entry with its known result.
Compound Structure: CCCNC(=O)Nc1ccc2c(c1)C(=O)N(C)C[C@@H](OC)[C@@H](C)CN(Cc1ccccn1)[C@@H](C)CO2
Category: no

Compound Structure: C[C@@H]1CN([C@@H](C)CO)C(=O)c2c(c3ccccc3n2C)-c2ccccc2CO[C@@H]1CN(C)S(=O)(=O)c1cccs1
Category: no

Compound Structure: C[C@@H]1CN([C@@H](C)CO)C(=O)c2c(c3ccccc3n2C)-c2ccccc2CO[C@H]1CN(C)S(=O)(=O)c1cccs1
Category: no

Compound Structure: C[C@H](CO)N1C[C@H](C)[C@@H](CN(C)S(=O)(=O)c2ccc([N+](=O)[O-])cc2)OCc2ccccc2-c2c(n(C)c3ccccc23)C1=O
Category: yes

Compound Structure: C[C@@H]1CN([C@@H](C)CO)C(=O)c2c(c3ccccc3n2C)-c2ccccc2CO[C@@H]1CN(C)S(=O)(=O)c1ccc(F)cc1
Category: no

Given Cc1ccccc1S(=O)(=O)N(C)C[C@@H]1OCc2ccccc2-c2c(n(C)c3ccccc23)C(=O)N([C@H](C)CO)C[C@H]1C , state the outcome it received in this test.
no

Given CN1CCN(C(=O)C[C@H]2C[C@@H]3c4cc(NS(=O)(=O)c5ccc(F)cc5)ccc4O[C@@H]3[C@@H](CO)O2)CC1 , state the outcome it received in this test.
no
